Test system: Penicillium digitatum
experiment-notes: Antifungal activity against Penicillium digitatum after 48 hr
Assay type: functional, organism-based
recorded-metric: EC50

> print(dat)
                                   compound  recorded.metric      result
1                    COc1ccc2c(c1)SCC(N)=N2             EC50  1.18 µg/mL
2                 Nc1nnc(CSCc2ccc(Cl)cc2)s1             EC50  7.88 µg/mL
3  NNc1ncncc1-c1ccccc1 [5-PHENYLPYRIMIDIN-4-YLHYDRAZINE]             EC50  10.1 µg/mL
4         c1cc2c3c(cccc3c1)NC(c1cnc[nH]1)N2             EC50  38.6 µg/mL
